- Tested on: FGFR3 (UniProt P22607)
- Sequence (P22607 whole entry, looked up): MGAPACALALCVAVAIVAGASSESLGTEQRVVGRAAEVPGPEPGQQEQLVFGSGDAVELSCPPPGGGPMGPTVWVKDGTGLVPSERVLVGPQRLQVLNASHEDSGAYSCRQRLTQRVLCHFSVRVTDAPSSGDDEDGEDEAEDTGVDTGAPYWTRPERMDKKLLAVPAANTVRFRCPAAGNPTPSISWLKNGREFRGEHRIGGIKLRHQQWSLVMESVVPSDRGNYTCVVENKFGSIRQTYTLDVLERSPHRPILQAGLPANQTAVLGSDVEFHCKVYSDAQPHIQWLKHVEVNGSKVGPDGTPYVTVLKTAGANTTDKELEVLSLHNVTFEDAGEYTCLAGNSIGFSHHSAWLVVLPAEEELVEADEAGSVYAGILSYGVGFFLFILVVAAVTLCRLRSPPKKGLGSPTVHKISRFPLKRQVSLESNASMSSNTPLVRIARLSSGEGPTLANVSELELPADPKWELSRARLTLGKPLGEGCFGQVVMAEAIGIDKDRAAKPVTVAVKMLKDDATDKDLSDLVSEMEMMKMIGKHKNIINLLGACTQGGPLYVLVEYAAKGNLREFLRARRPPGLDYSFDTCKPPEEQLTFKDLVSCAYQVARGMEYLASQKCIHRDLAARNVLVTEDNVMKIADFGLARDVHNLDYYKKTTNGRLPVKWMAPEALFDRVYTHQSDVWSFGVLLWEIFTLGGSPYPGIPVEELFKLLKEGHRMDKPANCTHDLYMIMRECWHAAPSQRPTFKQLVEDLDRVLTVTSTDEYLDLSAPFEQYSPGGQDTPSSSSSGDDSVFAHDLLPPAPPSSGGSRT
- Experiment notes: phosphorylation enrichment, bacterial display (enrichment ratio); higher = better substrate or ligand; peptides without Tyr show the background
Catalogue of sequences with associated phosphorylation enrichment
// no unit, no text: just the number

{"Seq string": "MARDIYRASFF [ALK_Y1278_YF]", "Numeric value": 0.449}

Ask | Request the reported phosphorylation enrichment associated with RAIDMYLMGCF [GABRB2_Y308_K303R]
Reply | 1.19

Ask | Request the reported phosphorylation enrichment associated with GIVKAYFVHAR [AIPL1_Y267_R270H_YF]
Reply | 0.605

---

- Tested on: Fyn (UniProt P06241)
- Sequence (P06241 whole entry, looked up): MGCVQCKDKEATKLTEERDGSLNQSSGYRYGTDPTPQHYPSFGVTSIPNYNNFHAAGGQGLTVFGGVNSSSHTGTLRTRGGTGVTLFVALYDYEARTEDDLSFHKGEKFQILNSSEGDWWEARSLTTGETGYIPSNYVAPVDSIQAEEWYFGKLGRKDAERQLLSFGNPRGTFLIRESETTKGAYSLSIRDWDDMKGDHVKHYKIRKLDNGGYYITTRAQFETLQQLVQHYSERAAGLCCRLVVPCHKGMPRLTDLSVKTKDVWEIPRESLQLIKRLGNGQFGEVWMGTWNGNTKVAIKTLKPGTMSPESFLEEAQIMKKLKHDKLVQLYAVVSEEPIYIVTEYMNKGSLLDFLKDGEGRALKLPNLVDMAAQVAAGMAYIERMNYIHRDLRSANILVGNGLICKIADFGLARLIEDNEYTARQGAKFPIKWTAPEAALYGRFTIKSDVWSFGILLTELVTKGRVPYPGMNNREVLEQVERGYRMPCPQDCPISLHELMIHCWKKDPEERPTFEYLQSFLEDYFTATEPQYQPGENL
- Experiment notes: phosphorylation enrichment, bacterial display (enrichment ratio); higher = better substrate or ligand; peptides without Tyr show the background
Response field class: string, computed from recorded phosphorylation enrichment by ranges band A = under 0.5, band B = from 0.5 up to 0.7, band C = 0.7 and over

{"Seq string": "EPDSLYGCGRG [ATM_Y2019_G2023R]", "Qualitative label": "band C"}
{"Seq string": "YDEYRYRSVIK [CFTR_Y517]", "Qualitative label": "band C"}
{"Seq string": "VKYGAYINDFK [GLB1_Y488_N484K]", "Qualitative label": "band B"}

Ask | Band for the recorded phosphorylation enrichment of HKGASYVFRLS [PTPRD_Y891] ?
Reply | band B

Ask | Band for the recorded phosphorylation enrichment of KKLEVYQSIAD [MYBPC3_Y548] ?
Reply | band C

---

- Tested on: Fyn (UniProt P06241)
- Experiment notes: phosphorylation enrichment, bacterial display (enrichment ratio); higher = better substrate or ligand; peptides without Tyr show the background
Is phosphorylation enrichment at least 0.5? Then 1. If not, -1.

Ask | Please indicate if the recorded phosphorylation enrichment for VTSLKYSTSPF [BRIP1_Y916_YF] meets or exceeds 0.5.
Reply | -1

Ask | Please indicate if the recorded phosphorylation enrichment for KILTHYKRPHT [KMT2D_Y5349] meets or exceeds 0.5.
Reply | -1

Ask | Please indicate if the recorded phosphorylation enrichment for FDDIAYIRKNL [PIK3CA_Y1021_T1025N] meets or exceeds 0.5.
Reply | -1

Ask | Please indicate if the recorded phosphorylation enrichment for PINEPYGDDLD [JUP_Y693_M697L] meets or exceeds 0.5.
Reply | 1

Ask | Please indicate if the recorded phosphorylation enrichment for TRSFKYLLLSM [NF1_Y491_YF] meets or exceeds 0.5.
Reply | -1

Ask | Please indicate if the recorded phosphorylation enrichment for LNCDRYSVGLL [PDE6A_Y275] meets or exceeds 0.5.
Reply | 1

Ask | Please indicate if the recorded phosphorylation enrichment for FHNSEYGELSE [FLT4_Y1337_Y1333H] meets or exceeds 0.5.
Reply | 1

Ask | Please indicate if the recorded phosphorylation enrichment for RLDRSYSYSYS [PEAR1_Y890] meets or exceeds 0.5.
Reply | -1

---

Catalogue of sequences with associated SH2 binding enrichment
- Tested on: c-Src SH2;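 also: peptide library displayed on the E. coli surface as eCPX fusions, selected cells deep-sequenced, score is each peptide's frequency after selection divided by its frequency in the input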
- Experiment notes: SH2 binding enrichment of the phosphorylated peptide, bacterial display (enrichment ratio); higher = better substrate or ligand; peptides without Tyr show the background
// no unit, no text: just the number

{"Seq string": "TTPGPHRSIYF [MPG_Y71_Y71H]", "SH2 binding enrichment": 0.503}
{"Seq string": "LKFAIYFEVRE [LAMA2_Y1258_A1261V_YF]", "SH2 binding enrichment": 0.653}
{"Seq string": "QRKPSYNQLPS [BRCA2_Y71_A75P]", "SH2 binding enrichment": 0.423}
{"Seq string": "KFADVYVGICL [B3GALNT1_Y269_E266A]", "SH2 binding enrichment": 0.423}
{"Seq string": "SNMPTYSGHFT [GRIN2A_Y1224]", "SH2 binding enrichment": 0.414}
{"Seq string": "AADGRYEVLFL [SEMA3F_Y478]", "SH2 binding enrichment": 7}

Ask | Request the reported SH2 binding enrichment associated with QMIETYFDFRL [NSMF_Y506]
Reply | 0.384

Ask | Request the reported SH2 binding enrichment associated with LIDSSYLTRTA [GREB1L_Y1063]
Reply | 0.426

Ask | Request the reported SH2 binding enrichment associated with QNVADYMRCLM [RPL5_Y207_Y210C]
Reply | 0.624

---

Catalogue of sequences with associated phosphorylation enrichment
- Tested on: c-Src
- Experiment notes: phosphorylation enrichment, bacterial display (enrichment ratio); higher = better substrate or ligand; peptides without Tyr show the background

Take a look at these entries with their results.
{"Seq string": "GTHCHYKAPTV [FZD9_Y569]", "Tested on": "c-Src", "phosphorylation enrichment": 0.485}
{"Seq string": "HRGSLYLAIEF [TEK_Y899_Y897S_YF]", "Tested on": "c-Src", "phosphorylation enrichment": 0.489}
{"Seq string": "KDGSGYISAAE [CALM1_Y100_N98S]", "Tested on": "c-Src", "phosphorylation enrichment": 0.4}
{"Seq string": "DHAGMYGLGDR [MAPT_Y18_T17M]", "Tested on": "c-Src", "phosphorylation enrichment": 0.454}
{"Seq string": "DMDATYRPMYS [JUP_Y701]", "Tested on": "c-Src", "phosphorylation enrichment": 0.568}
{"Seq string": "DGLALYTGSAL [COL6A3_Y524_S521L]", "Tested on": "c-Src", "phosphorylation enrichment": 0.635}
{"Seq string": "VEKGSYSALRA [ABCC2_Y845_L849R]", "Tested on": "c-Src", "phosphorylation enrichment": 0.314}
{"Seq string": "NGEDPYAGSTD [XRCC1_Y515]", "Tested on": "c-Src", "phosphorylation enrichment": 0.55}

Ask | Request the reported phosphorylation enrichment associated with LVQAEYWHDRI [PPT1_Y185_P189R]
Reply | 0.603

Ask | Request the reported phosphorylation enrichment associated with GKSHIYFWTLE [EML2_Y230]
Reply | 0.577

Ask | Request the reported phosphorylation enrichment associated with LPEVSYVKAID [GLRA1_Y307_K304E]
Reply | 0.126

Ask | Request the reported phosphorylation enrichment associated with YKPGFYNLKEK [LAMA1_Y490_C485Y]
Reply | 0.491

Ask | Request the reported phosphorylation enrichment associated with GHMFAYDWISI [BEST1_Y227_L224M_YF]
Reply | 1.28

Ask | Request the reported phosphorylation enrichment associated with GISDEYHVIRH [GCDH_Y398]
Reply | 0.664

Ask | Request the reported phosphorylation enrichment associated with RRNEIYEIKVD [LGR5_Y387_H383R]
Reply | 4.83

Ask | Request the reported phosphorylation enrichment associated with TEAEPYFCSLR [NPHS1_Y1138_R1140C_YF]
Reply | 0.932

Ask | Request the reported phosphorylation enrichment associated with CSHMFYGKQCC [ADAMTS16_Y1211_K1209M]
Reply | 0.573

Ask | Request the reported phosphorylation enrichment associated with QKMADYSNKLY [PDPR_Y104]
Reply | 0.509

Ask | Request the reported phosphorylation enrichment associated with LKYAIYFEARE [LAMA2_Y1258]
Reply | 1.49

Ask | Request the reported phosphorylation enrichment associated with ENFDDYMKDVG [FABP4_Y20_E23D]
Reply | 0.43

Ask | Request the reported phosphorylation enrichment associated with MCITQYERESQ [PRNP_Y218]
Reply | 0.394

Ask | Request the reported phosphorylation enrichment associated with VQEDIYDEFVE [ALDH2_Y332]
Reply | 1.87

Ask | Request the reported phosphorylation enrichment associated with IFLADYRIMEG [ALOX12B_Y318_YF]
Reply | 0.528

---

- Tested on: FGFR3 (UniProt P22607)
- Experiment notes: phosphorylation enrichment, bacterial display (enrichment ratio); higher = better substrate or ligand; peptides without Tyr show the background
Is phosphorylation enrichment at least 0.7? Then Satisfied. If not, Not satisfied.

Field: example entries. Status: answers known.
{"Seq string": "LNERHYGGLTD [PGAM2_Y92_G97D]", "Qualitative label": "Satisfied"}
{"Seq string": "GLAELYEYQKK [CKAP5_Y1854_K1857Q]", "Qualitative label": "Not satisfied"}
{"Seq string": "LKYAIYFEARE [LAMA2_Y1258]", "Qualitative label": "Satisfied"}
{"Seq string": "MSRDIYSTDYY [NTRK1_Y676]", "Qualitative label": "Satisfied"}
{"Seq string": "DKATEYIQFVR [MAX_Y70_M74V_YF]", "Qualitative label": "Not satisfied"}

Ask | Please indicate if the recorded phosphorylation enrichment for EYITRYIDSLK [PSMA7_Y110_A112D] meets or exceeds 0.7.
Reply | Not satisfied

Ask | Please indicate if the recorded phosphorylation enrichment for TVFENYVADIE [RHOA_Y42] meets or exceeds 0.7.
Reply | Satisfied

Ask | Please indicate if the recorded phosphorylation enrichment for EDGCIYPGTIA [SMN1_Y109_A111G] meets or exceeds 0.7.
Reply | Satisfied

Ask | Please indicate if the recorded phosphorylation enrichment for VEDHYYEGGIG [TKT_Y564] meets or exceeds 0.7.
Reply | Satisfied

Ask | Please indicate if the recorded phosphorylation enrichment for PKEQRYSFLQN [GH1_Y68_K67R] meets or exceeds 0.7.
Reply | Not satisfied

Data origin, for the record: the supplement of paper PMC10065799
